Values compiled from ChEMBL document CHEMBL4184220.

# PROTOCOL_DETAILS: Cmax in Wistar rat at 5 mg/kg, po administered as single dose measured after 1 to 24 hrs by reverse-phase HPLC method
# Type: ADME, organism-based
# Design: dose 5 mg/kg, route oral
# MEASUREMENT_CONDITIONS: in vivo
MEASURED_PARAMETER: Cmax (µM)

COc1ccc(-c2ccc(C)c(NC(=O)COCC(=O)Nc3ccc(Cl)cc3C(=O)O)c2)cc1 : 2.2
CCN(C(=O)COCC(=O)Nc1ccc(Cl)cc1C(=O)O)c1cc(-c2ccc(F)cc2)ccc1C : 0.82
O=C(COCC(=O)Nc1ccc(Cl)cc1C(=O)[O-])Nc1cccc(-n2cccc2)c1.[Na+] : 7.4
O=C(COCC(=O)Nc1ccc(Cl)cc1C(=O)O)Nc1cccc(-c2ccon2)c1 : 2
O=C(COCC(=O)Nc1ccc(Cl)cc1C(=O)O)Nc1cccc(-c2ccco2)c1 : 11.5
O=C(COCC(=O)Nc1ccc(Cl)cc1C(=O)O)Nc1cccc(-c2ccoc2)c1 : 17.9
O=C(COCC(=O)Nc1ccc(Cl)cc1C(=O)O)Nc1cccc(-c2cn[nH]c2)c1 : 1.7
O=C(COCC(=O)Nc1ccc(Cl)cc1C(=O)O)Nc1cccc(-c2ccno2)c1 : 14

[1] COc1ccccc1-c1ccc(C)c(NC(=O)COCC(=O)Nc2ccc(Cl)cc2C(=O)O)c1
[2] O=C(COCC(=O)Nc1ccc(Cl)cc1C(=O)O)Nc1ccc(-c2ccoc2)cc1
Problem: Among 1 and 2 , which shows a numerically higher Cmax result? Returns: label corresponding to the selected item.
Result: 2
(2: 17.6 µM, 1: 2.08 µM)
